Parameter: IC50. Scope: all listed entries.
target entity: Human immunodeficiency virus type 1 reverse transcriptase (Human immunodeficiency virus 1)
assay summary: Competitive inhibition of C-Terminal histidine-tagged wild type heterodimeric HIV-1 reverse transcriptase p66/p51 assessed as inhibition of dGTP incorporation after 15 mins by PAGE
Numeric only. Scale: nM

>>> value("Cc1cc(C#N)cc(C)c1Oc1ccnc(Nc2ccc(C#N)cc2)n1")
9
>>> value("Cc1cc(C#CCOCCOCCOCCOCCOCC#Cc2cn([C@H]3C=C[C@@H](COP(=O)(O)OP(=O)(O)OP(=O)(O)O)O3)c(=O)[nH]c2=O)cc(C)c1Oc1ccnc(Nc2ccc(C#N)cc2)n1")
42

Enquiry: Give a short answer stating reported IC50 for `C#CCOCCOCCOCCOCCOCC#Cc1cc(C)c(Oc2ccnc(Nc3ccc(C#N)cc3)n2)c(C)c1` .
Return: 64
